Value source: ChEMBL document CHEMBL3352063

test system: Plasmodium falciparum; assay: Antiplasmodial activity against Plasmodium falciparum 3D7 infected in human O positive erythrocyte after 72 hrs; format: functional, organism-based; conditions: 3D7, 72 h
Kindly supply the reported pEC50 values for the records listed here.
Numbers only, as −log10 of the molar value.

Some solved cases for reference:
compound	pEC50
CC(C)C[C@H](NC(=O)[C@@H](NC(=O)[C@H](CCCNC(=N)N)NS(=O)(=O)Cc1ccccc1)C(C)C)[C@@H](O)CC(=O)NCCc1ccccc1	5.60
CC(C)C[C@H](NC(=O)[C@H](CCCNC(=N)N)NC(=O)OCc1ccccc1)C(=O)N[C@@H](CC(C)C)[C@@H](O)CC(=O)NC1CCCCC1	5.05
CC[C@H](C)[C@H](NC(=O)[C@H](CCCNC(=N)N)NC(=O)OCc1ccccc1)C(=O)N[C@@H](CC(C)C)[C@@H](O)CC(=O)NC1CCCCC1	5.17
CC(C)C[C@H](NC(=O)[C@H](C)NC(=O)[C@H](CCCNC(=N)N)NS(=O)(=O)c1ccccc1)[C@@H](O)CC(=O)NCCc1ccccc1	4.79
CC(C)C[C@H](NC(=O)[C@@H](NC(=O)[C@H](CCCNC(=N)N)NC(=O)OCc1ccccc1)C(C)C)[C@@H](O)CC(=O)NC1CCCCC1	5.01
CC(C)C[C@H](NC(=O)[C@H](C)NC(=O)[C@H](CCCNC(=N)N)NC(=O)OCc1ccccc1)[C@@H](O)CC(=O)NC1CCCCC1	4.46

Please state pEC50 for every compound in the list that follows.
1. CCN(CC)CCCC(C)Nc1ccnc2cc(Cl)ccc12 (centres undefined) [CHLOROQUINE]
2. CC(C)C[C@H](NC(=O)[C@H](C)NC(=O)[C@H](CCCNC(=N)N)NC(=O)COCc1ccccc1)[C@@H](O)CC(=O)NCCc1ccccc1

[8.52, 4.64]

---

molecular target: Plasmepsin V (Plasmodium falciparum (isolate 3D7)) (UniProt Q8I6Z5); test: Inhibition of Plasmodium falciparum plasmepsin V assessed as cleavage of wtKAHRP fluorogenic substrate at 1 uM
Sequence (Q8I6Z5 whole entry, looked up): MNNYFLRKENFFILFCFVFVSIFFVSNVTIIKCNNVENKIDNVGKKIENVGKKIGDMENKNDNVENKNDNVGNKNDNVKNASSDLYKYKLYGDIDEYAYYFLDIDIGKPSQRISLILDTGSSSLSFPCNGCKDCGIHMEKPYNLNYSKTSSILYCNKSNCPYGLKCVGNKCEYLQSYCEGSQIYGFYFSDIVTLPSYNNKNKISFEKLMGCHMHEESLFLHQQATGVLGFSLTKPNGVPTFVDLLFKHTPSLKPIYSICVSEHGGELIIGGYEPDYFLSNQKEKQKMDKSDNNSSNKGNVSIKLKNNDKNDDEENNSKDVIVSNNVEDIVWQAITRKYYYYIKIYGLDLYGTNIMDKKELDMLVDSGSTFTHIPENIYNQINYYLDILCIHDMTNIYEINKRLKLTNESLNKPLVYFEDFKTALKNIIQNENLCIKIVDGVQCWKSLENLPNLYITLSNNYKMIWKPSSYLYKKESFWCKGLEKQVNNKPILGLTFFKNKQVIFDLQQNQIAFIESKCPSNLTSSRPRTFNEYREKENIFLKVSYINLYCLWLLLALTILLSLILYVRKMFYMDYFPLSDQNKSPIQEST
Numbered stars: 1 amine (or outer) side, 2 acyl side, 3 side chain; on linkers, the order of the positions; unused ones are H or OH. Square brackets hold non-standard residues; d marks the D form. Peptide text beside a SMILES is read from it. * marks the point of attachment. Sta = CC(C)C[C@H](N)[C@@H](O)CC(=O)O; NHPhenethyl = c1ccc(CCN*)cc1; Piperidide = C1CCN(*)CC1; Cbz = O=C(OCc1ccccc1)*; CO = O=C([*:1])[*:2]; NHBn = c1ccc(CN*)cc1; NHPr = CCCN*
measured metric: inhibition (%)
Numbers only, in %.

Please report inhibition for every entry that follows.
1. CC(C)C[C@H](NC(=O)[C@H](C)NC(=O)[C@H](CCCNC(=N)N)NC(=O)OCc1ccccc1)[C@@H](O)CC(=O)NC1CCC1
2. CC(C)C[C@H](NC(=O)[C@H](C)NC(=O)[C@H](CCCNC(=N)N)NC(=O)OCc1ccccc1)[C@@H](O)CC(=O)NCCc1ccccc1 (Cbz-Arg-Ala-[Sta]-NHPhenethyl)
3. CC(C)C[C@H](NC(=O)[C@H](C)NC(=O)[C@H](CCCNC(=N)N)NS(=O)(=O)C1CC1)[C@@H](O)CC(=O)NCCc1ccccc1
4. CCCNC(=O)C[C@H](O)[C@H](CC(C)C)NC(=O)[C@H](C)NC(=O)[C@H](CCCNC(=N)N)NC(=O)OCc1ccccc1 (Cbz-Arg-Ala-[Sta]-NHPr)
5. CC(C)C[C@H](NC(=O)[C@H](C)NC(=O)[C@H](CCCNC(=N)N)NC(=O)OCc1ccccc1)[C@@H](O)CC(=O)N1CCCCC1 (Cbz-Arg-Ala-[Sta]-Piperidide)

[56, 79, 80, 56, 27]

Need inhibition of CC(C)C[C@H](NC(=O)[C@H](C)NC(=O)[C@H](CCCNC(=N)N)NC(=O)NCc1ccccc1)[C@@H](O)CC(=O)NCCc1ccccc1 ({NHBn-CO}-Arg-Ala-[Sta]-NHPhenethyl) , thanks. 32

---

target: Plasmepsin V (Plasmodium falciparum (isolate 3D7), UniProt Q8I6Z5); test: Inhibition of Plasmodium falciparum plasmepsin V assessed as cleavage of wtKAHRP fluorogenic substrate
Sequence (Q8I6Z5 whole entry): as the sequence (Q8I6Z5 whole entry, looked up) above
Square brackets hold non-standard residues; d marks the D form. Peptide text beside a SMILES is read from it. * marks the point of attachment. Sta = CC(C)C[C@H](N)[C@@H](O)CC(=O)O; NHPhenethyl = c1ccc(CCN*)cc1; Cbz = O=C(OCc1ccccc1)*; NHBn = c1ccc(CN*)cc1; Bz = O=C(c1ccccc1)*
measured metric: log10 of IC50 (log10 of the value in nM)
Give log10 of IC50, with IC50 taken in nM.

Completed entries (count: 9):
molecule	observed
CC(=O)N[C@@H](CCCNC(=N)N)C(=O)N[C@@H](C)C(=O)N[C@@H](CC(C)C)[C@@H](O)CC(=O)NC1CCCCC1	2.99
CC(C)C[C@H](NC(=O)[C@H](C)NC(=O)[C@H](CCCNC(=N)N)NS(=O)(=O)Cc1ccccc1)[C@@H](O)CC(=O)NCCc1ccccc1	2.80
CC(C)C[C@H](NC(=O)[C@H](C)NC(=O)[C@H](CCCNC(=N)N)NC(=O)OCc1ccccc1)[C@@H](O)CC(=O)NCc1ccccc1 (Cbz-Arg-Ala-[Sta]-NHBn)	2.72
CC(C)C[C@H](NC(=O)[C@H](C)NC(=O)[C@H](CCCNC(=N)N)NC(=O)OCc1ccccc1)[C@@H](O)CC(=O)N(C)CCc1ccc(Cl)cc1	3.30
CC(=O)N[C@@H](CCCNC(=N)N)C(=O)N[C@@H](C)C(=O)N[C@@H](CC(C)C)[C@@H](O)CC(=O)N[C@@H](C)C(N)=O (Ac-RA[Sta]A-NH2)	2.79
CC(C)C[C@H](NC(=O)[C@H](C)NC(=O)[C@H](CCCNC(=N)N)NC(=O)c1ccccc1)[C@@H](O)CC(=O)NCCc1ccccc1 (Bz-Arg-Ala-[Sta]-NHPhenethyl)	2.89
CC(C)C[C@H](NC(=O)[C@H](C)NC(=O)[C@H](CCCNC(=N)N)NS(=O)(=O)c1ccccc1)[C@@H](O)CC(=O)NCCc1ccccc1	2.58
CC(=O)N[C@@H](CCCNC(=N)N)C(=O)N[C@@H](C)C(=O)N[C@@H](CC(C)C)[C@@H](O)CC(=O)N[C@@H](CCC(N)=O)C(N)=O (Ac-RA[Sta]Q-NH2)	2.75
CC(C)C[C@H](NC(=O)[C@@H](NC(=O)[C@H](CCCNC(=N)N)NC(=O)OCc1ccccc1)C(C)C)[C@@H](O)CC(=O)NC1CCCCC1	1.46

Now let's try a different one.
What value of log10 of IC50 has been recorded for this entry: CC(C)C[C@H](NC(=O)[C@H](Cc1ccccc1)NC(=O)[C@H](CCCNC(=N)N)NC(=O)OCc1ccccc1)[C@@H](O)CC(=O)NC1CCCCC1 2.36

---

target: Plasmepsin V (Plasmodium falciparum (isolate 3D7)); assay: Inhibition of Plasmodium falciparum plasmepsin V assessed as cleavage of wtKAHRP fluorogenic substrate at 1 uM
Numbered stars: 1 amine (or outer) side, 2 acyl side, 3 side chain; on linkers, the order of the positions; unused ones are H or OH. Square brackets hold non-standard residues; d marks the D form. Peptide text beside a SMILES is read from it. * marks the point of attachment. Sta = CC(C)C[C@H](N)[C@@H](O)CC(=O)O; Hydrocinnamoyl = O=C(CCc1ccccc1)*; NHPhenethyl = c1ccc(CCN*)cc1; Cbz = O=C(OCc1ccccc1)*; CO = O=C([*:1])[*:2]; NHPh = c1ccc(N*)cc1; Ms = CS(=O)(=O)*; NHiPr = CC(C)N*
Answer 0 (no) if inhibition is under 50%, and 1 (yes) if it is 50% or more.

molecule	assigned class
CC(C)C[C@H](NC(=O)[C@H](C)NC(=O)[C@H](CCCNC(=N)N)NC(=O)NC1CCCC1)[C@@H](O)CC(=O)NCCc1ccccc1	0 (no)
CC(C)C[C@H](NC(=O)[C@H](C)NC(=O)[C@H](CCCNC(=N)N)NC(=O)Nc1ccccc1)[C@@H](O)CC(=O)NCCc1ccccc1 ({NHPh-CO}-Arg-Ala-[Sta]-NHPhenethyl)	1 (yes)
CC(C)C[C@H](NC(=O)[C@H](C)NC(=O)[C@H](CCCNC(=N)N)NC(=O)CCc1ccccc1)[C@@H](O)CC(=O)NCCc1ccccc1 (Hydrocinnamoyl-Arg-Ala-[Sta]-NHPhenethyl)	1 (yes)
CC(C)C[C@H](NC(=O)[C@H](C)NC(=O)[C@H](CCCNC(=N)N)NC(=O)OCc1ccccc1)[C@@H](O)CC(=O)NC1CCCC1	1 (yes)
CC(C)C[C@H](NC(=O)[C@H](C)NC(=O)[C@H](CCCNC(=N)N)NC(=O)OCc1ccccc1)[C@@H](O)CC(=O)N(C)Cc1ccccc1	0 (no)
CC(C)C[C@H](NC(=O)[C@H](C)NC(=O)[C@H](CCCNC(=N)N)NS(C)(=O)=O)[C@@H](O)CC(=O)NCCc1ccccc1 (Ms-Arg-Ala-[Sta]-NHPhenethyl)	1 (yes)
CC(C)C[C@H](NC(=O)[C@H](C)NC(=O)[C@H](CCCNC(=N)N)NS(=O)(=O)CCc1ccccc1)[C@@H](O)CC(=O)NCCc1ccccc1	1 (yes)
CC(C)C[C@H](NC(=O)[C@H](C)NC(=O)[C@H](CCCNC(=N)N)NC(=O)OCc1ccccc1)[C@@H](O)CC(=O)N(C)C (Cbz-Arg-Ala-[Sta]-NMe2)	0 (no)

Does inhibition meet or surpass 50% for CC(C)C[C@H](NC(=O)[C@H](C)NC(=O)[C@H](CCCNC(=N)N)NC(=O)OCc1ccccc1)[C@@H](O)CC(=O)N(C)CCc1ccccc1 ? 0 (no)

Further, for CC(C)C[C@H](NC(=O)[C@H](C)NC(=O)[C@H](CCCNC(=N)N)NC(=O)OCc1ccccc1)[C@@H](O)CC(=O)NC(C)C (Cbz-Arg-Ala-[Sta]-NHiPr) ? 0 (no)

Lookup CC(C)CCNC(=O)C[C@H](O)[C@H](CC(C)C)NC(=O)[C@H](C)NC(=O)[C@H](CCCNC(=N)N)NC(=O)OCc1ccccc1 1 (yes)

Lookup CC(C)C[C@H](NC(=O)[C@H](C)NC(=O)[C@H](CCCNC(=N)N)NC(=O)OCc1ccccc1)[C@@H](O)CC(=O)N(C)CCc1ccc(Cl)cc1 0 (no)

Entry CC(C)C[C@H](NC(=O)[C@H](C)NC(=O)[C@H](CCCNC(=N)N)NC(=O)OCc1ccccc1)[C@@H](O)CC(=O)N(C)C(C)c1ccccc1 (stereo not given in full) please 0 (no)

Also check CC(=O)N[C@@H](CCCNC(=N)N)C(=O)N[C@@H](C)C(=O)N[C@@H](CC(C)C)[C@@H](O)CC(=O)NCCc1ccccc1 (Ac-Arg-Ala-[Sta]-NHPhenethyl) 0 (no)
